A collection of binders and their measured koff
# TARGET OF ASSAY: T1, HSP70 (human HSP70; the antigen of the binning, humanization and variant binding assays) (human, UniProt P0DMV8 1-641, limits assumed)
# T1 construct: also called hu HSP70
# T1 sequence (P0DMV8 whole entry, change not shown): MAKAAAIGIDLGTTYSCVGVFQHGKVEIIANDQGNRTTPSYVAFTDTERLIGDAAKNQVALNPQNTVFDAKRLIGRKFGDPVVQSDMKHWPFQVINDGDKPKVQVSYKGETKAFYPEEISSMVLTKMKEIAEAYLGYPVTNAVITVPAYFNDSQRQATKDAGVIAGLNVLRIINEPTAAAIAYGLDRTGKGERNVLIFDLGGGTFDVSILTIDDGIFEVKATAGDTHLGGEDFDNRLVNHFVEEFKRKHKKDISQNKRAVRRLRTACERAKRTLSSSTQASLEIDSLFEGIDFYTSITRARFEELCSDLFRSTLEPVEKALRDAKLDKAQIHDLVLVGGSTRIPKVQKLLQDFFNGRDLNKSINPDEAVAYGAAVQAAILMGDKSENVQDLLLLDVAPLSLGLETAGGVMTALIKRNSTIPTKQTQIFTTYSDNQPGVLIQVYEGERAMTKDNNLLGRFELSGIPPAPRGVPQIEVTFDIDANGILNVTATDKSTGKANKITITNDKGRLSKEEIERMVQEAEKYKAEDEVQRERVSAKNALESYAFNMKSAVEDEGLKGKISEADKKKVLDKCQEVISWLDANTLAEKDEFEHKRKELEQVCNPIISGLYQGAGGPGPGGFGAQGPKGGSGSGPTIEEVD
# RUN DESCRIPTION: BLI, anti-human Fc capture, antigen dilution series, 1:1 fit

BINDER	RESULT
h77A-1.10 (antibody, V domains shown, captured by anti-human Fc) VH: QIQLVQSGDEVKKPGASVKVSCKASGYTFTNYGMNWVRQAPGQGLEWMGWINTYTGEPTYADDFKGRFTFTTDTSTSTAYMELRSLRSDDTAVYFCARYDHAMDYWGQGTLVTVSS VL: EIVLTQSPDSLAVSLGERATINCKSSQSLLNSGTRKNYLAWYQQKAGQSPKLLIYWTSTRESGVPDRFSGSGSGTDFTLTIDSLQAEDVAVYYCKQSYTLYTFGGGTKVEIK	0.000145 s⁻¹

As a next step, examine the binder that follows.
Query: I am curious: what koff value has been reported for h77A-1.75 (antibody, V domains shown, captured by anti-human Fc) VH: QIQLVQSGVEVKKPGASVKVSCKASGYTFTNYGMNWVRQAPGQGLEWMGWINTYTGEPTYSDDFKGRFTFTTDTSTSTAYMEVRSLRSDDTAVYFCARYDHAMDYWGQGTLVTVSS VL: EIVLTQSPDSLAVSLGERATINCKSSQSLFNSGTRKNYLAWYQQKAGQSPKLLIYWTSTRESGVPDRFSGSGSGTDFTLSIDSLQAEDVAVYYCKQSYTLYTFGGGTKVEIK ?
Response: 2.43e-05 s⁻¹

Where do these numbers come from? They come from patent US20250084155A1.
